# assay_target: T1, human PDGF-BB (R&D system, 220-BB) (human, UniProt P01127 82-190, biotinylated in the blocking ELISA of Example 4 (sites not given); unlabelled in the SPR assay)
# T1 construct: Bought protein (R&D Systems), a homodimer of two B subunits; also called human biotinylated PDGF-BB
# T1 sequence (P01127 82-190 limits assumed): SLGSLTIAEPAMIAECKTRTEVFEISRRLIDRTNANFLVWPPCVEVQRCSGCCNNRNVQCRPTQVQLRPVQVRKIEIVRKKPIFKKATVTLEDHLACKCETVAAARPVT
# protocol_summary: SPR (Biacore T200, 25 C), HCAb captured by anti-human IgG Fc, PDGF-BB 0.625-10 nM as analyte, 1:1 model
# Experimental: Anti-human IgG Fc antibody was directly immobilized across CM5 biosensor chip (GE Healthcare) using a standard coupling kit (GE Healthcare, BR-1008-39) according to the manufacturer's instructions. […] Associating rates (Ka) and dissociation rates (Kd) were calculated based on 1:1 Langmuir binding model with BIAcore T200 evaluation software version 2.0 (GE Healthcare). The equilibrium dissociation constant (Kd) was determined by the ratio Koff/Kon.
endpoint_name: log10 of kon (log10 of the value in M⁻¹ s⁻¹)
All values: log10 kon [M⁻¹ s⁻¹].

INSERT INTO results (binder, reading) VALUES
  ('anti-PDGF BB HCAb P36A4 (antibody, IgG1, V domains shown, Heavy chain only antibody, no light chain; VH fused to IgG1 hinge and CH2/CH3; not shown: human IgG1 hinge region and CH2/CH3 regions (no CH1)) VH: QVQLLESGGGLVQPGGSLRLSCPASGFTFSSYAMSWVRQAPGKGLEWVSAISGSGGSTYYADSVKGRFTISRDNSKNTLYLQMNSLRAEDTAVYYCARNNGIFMFRGVIRYKSWGQGTLVTVSS', 5.82),
  ('anti-PDGF BB HCAb P36F3 (antibody, IgG1, V domains shown, Heavy chain only antibody, no light chain; VH fused to IgG1 hinge and CH2/CH3; not shown: human IgG1 hinge region and CH2/CH3 regions (no CH1)) VH: QVQLVESGGGLVQPGGSLRLSCAASGFTFSSYWMHWVRQAPGKGLVWVSRINSDGSSTSYADSVKGRFTISRDNAKNTLYLQMNSLRAEDTAVYYCAKDKGITMVRGVIHFDYWGQGTLVTVSS', 5.99),
  ('anti-PDGF BB HCAb P36E10 (antibody, IgG1, V domains shown, Heavy chain only antibody, no light chain; VH fused to IgG1 hinge and CH2/CH3; not shown: human IgG1 hinge region and CH2/CH3 regions (no CH1)) VH: QVQLLESGGGLVQPGGSLRLSCAASGFTFSSYAMSWVRQAPGKGLEWVSAISGSGGSTYYADSVKGRFTISRDNSKNTLYLQMNSLRAEDTAVYYCASNSGFFTLSGFIRYKFWGQGTLVTVSS', 4.62),
  ('anti-PDGF BB HCAb P36E8 (antibody, IgG1, V domains shown, Heavy chain only antibody, no light chain; VH fused to IgG1 hinge and CH2/CH3; not shown: human IgG1 hinge region and CH2/CH3 regions (no CH1)) VH: QVQLLESGGGLVQPGGSLRLSCAASGFTFSSYAMSWVRQAPGKGLEWVSAISGSGGSTYYADSVKGRFTISRDNSKNTLYLQMNSLRAEDTAVYYCASNSELFKVNGVIRYDFWGQGTLVTVSS', 5.39),
  ('anti-PDGF BB HCAb P36C12 (antibody, IgG1, V domains shown, Heavy chain only antibody, no light chain; VH fused to IgG1 hinge and CH2/CH3; It is printed in places as P36012, which looks like a misprint of P36C12; also called P36012; not shown: human IgG1 hinge region and CH2/CH3 regions (no CH1)) VH: QVQLLESGGGLVQPGGSLRLSCAASGFTFSSYAMSWVRQAPGKGLEWVSAISGSGGSTYYADSVKGRFTISRDNSKNTLYLQMNSLRAEDTAVYYCARNSEIFMVKGVIQYNSWGQGTLVTVSS', 6.00);

Here is another binder to look at.
Quick one: log10 of kon of anti-PDGF BB HCAb P36A3 (antibody, V domains shown, Heavy chain only antibody, no light chain; VH fused to IgG1 hinge and CH2/CH3 and made in CHO cells as fully human recombinant HCAb; It was captured by anti-human IgG Fc in the SPR assay; not shown: human IgG1 hinge region and CH2/CH3 regions (no CH1)) VH: QVQLLESGGGLVQPGGSLRLSCAASGFTFSSYAMSWVRQAPGKGLEWVSAISGSGGSTYYADSVKGRFTISRDNSKNTLYLQMNSLRAEDTAVYYCASNSVFSTLKGFLQYKFWGQGTLVTVSS ?
5.34
